Hi! I'm sharing some Ki results obtained with human factor Xa (Homo sapiens, UniProt P00742).
Sequence (P00742 235-488 limits assumed): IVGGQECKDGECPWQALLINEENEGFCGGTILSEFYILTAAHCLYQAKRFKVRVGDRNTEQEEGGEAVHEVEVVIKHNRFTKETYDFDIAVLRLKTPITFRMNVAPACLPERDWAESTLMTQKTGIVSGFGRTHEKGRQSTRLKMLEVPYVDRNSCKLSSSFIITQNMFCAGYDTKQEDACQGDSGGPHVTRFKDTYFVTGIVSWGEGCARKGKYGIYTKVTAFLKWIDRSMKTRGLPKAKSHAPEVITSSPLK
Sequence (P00742 41-179 partner limits assumed): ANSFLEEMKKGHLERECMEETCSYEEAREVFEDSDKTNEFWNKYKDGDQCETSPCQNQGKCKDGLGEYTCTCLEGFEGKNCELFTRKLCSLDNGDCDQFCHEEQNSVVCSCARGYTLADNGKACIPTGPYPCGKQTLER
metric name: Ki (nM)

{"smiles": "CC(C)N1CCC(NC(=O)c2nn(Cc3cc(-c4ccc(Cl)s4)on3)c3cc(C(=O)O)ccc23)CC1", "metric name": "Ki", "meas value": 212}
{"smiles": "CC(C)N1CCC(NC(=O)c2nn(Cc3cc(-c4ccc(Cl)s4)on3)c3ccc(C(=O)N4CC(C(=O)O)C4)cc23)CC1", "metric name": "Ki", "meas value": 10}
{"smiles": "CC(C)N1CCC(NC(=O)c2nn(Cc3cc(-c4ccc(Cl)s4)on3)c3ccc(C(=O)NCCS(N)(=O)=O)cc23)CC1", "metric name": "Ki", "meas value": 28}
{"smiles": "CS(=O)(=O)c1ccccc1-c1ccc(NC(=O)c2nn(Cc3cc(-c4ccc(Cl)s4)on3)c3ccccc23)cc1", "metric name": "Ki", "meas value": 7}
